Target: USP1/UAF1 enzyme (Homo sapiens, UniProt O94782)
Sequence (O94782 whole entry): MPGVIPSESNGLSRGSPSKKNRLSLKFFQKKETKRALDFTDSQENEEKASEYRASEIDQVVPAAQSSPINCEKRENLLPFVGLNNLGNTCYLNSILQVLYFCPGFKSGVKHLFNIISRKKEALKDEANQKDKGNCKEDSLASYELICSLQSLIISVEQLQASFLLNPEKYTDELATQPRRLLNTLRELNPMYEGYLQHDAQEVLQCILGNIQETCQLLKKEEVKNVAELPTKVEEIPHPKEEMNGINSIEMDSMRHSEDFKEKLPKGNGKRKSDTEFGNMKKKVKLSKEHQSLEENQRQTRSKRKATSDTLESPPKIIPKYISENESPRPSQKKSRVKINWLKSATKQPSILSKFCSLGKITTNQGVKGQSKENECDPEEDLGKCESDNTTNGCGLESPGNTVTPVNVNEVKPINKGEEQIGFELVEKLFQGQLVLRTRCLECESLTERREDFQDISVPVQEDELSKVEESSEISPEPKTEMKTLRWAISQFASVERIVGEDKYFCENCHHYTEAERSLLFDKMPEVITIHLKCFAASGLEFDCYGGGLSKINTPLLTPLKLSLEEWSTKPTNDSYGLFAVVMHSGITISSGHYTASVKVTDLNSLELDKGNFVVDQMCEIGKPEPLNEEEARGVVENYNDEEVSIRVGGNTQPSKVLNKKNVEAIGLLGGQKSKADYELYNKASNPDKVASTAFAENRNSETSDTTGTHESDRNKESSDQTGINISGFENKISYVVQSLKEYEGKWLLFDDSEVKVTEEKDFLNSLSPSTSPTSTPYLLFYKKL
Sequence (Q8TAF3 whole entry partner): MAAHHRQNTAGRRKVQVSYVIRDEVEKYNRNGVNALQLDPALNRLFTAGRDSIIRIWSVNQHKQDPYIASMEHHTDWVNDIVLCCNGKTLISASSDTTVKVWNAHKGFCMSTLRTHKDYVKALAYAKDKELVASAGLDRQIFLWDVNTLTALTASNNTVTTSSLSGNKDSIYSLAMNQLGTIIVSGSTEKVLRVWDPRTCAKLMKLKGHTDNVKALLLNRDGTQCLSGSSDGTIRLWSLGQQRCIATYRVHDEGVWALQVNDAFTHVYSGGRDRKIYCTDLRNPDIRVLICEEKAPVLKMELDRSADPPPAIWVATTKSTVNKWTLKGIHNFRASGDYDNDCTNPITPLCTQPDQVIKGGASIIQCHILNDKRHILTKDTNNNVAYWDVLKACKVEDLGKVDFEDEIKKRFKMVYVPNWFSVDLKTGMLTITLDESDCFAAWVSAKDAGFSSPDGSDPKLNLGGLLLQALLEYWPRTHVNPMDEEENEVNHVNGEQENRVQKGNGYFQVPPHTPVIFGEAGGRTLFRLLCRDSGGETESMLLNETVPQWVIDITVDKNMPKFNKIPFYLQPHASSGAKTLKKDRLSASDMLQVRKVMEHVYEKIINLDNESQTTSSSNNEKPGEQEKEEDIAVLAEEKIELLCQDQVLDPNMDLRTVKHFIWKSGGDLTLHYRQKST
Test: USP1/UAF1 deubiquitination assay (ubiquitin-rhodamine 110 substrate)
Conditions: read-out: USP1 IC50 (Ub-Rho)
Listing of recorded IC50 by entry.
observable: IC50

compound="CCn1cc(C(F)(F)F)nc1-c1cc2c(cc1F)C(N1C(=O)CCn3nc(-c4c(Cl)cnn4C(C)C)cc31)CC2 (stereo not shown) [Example 121]" target="USP1/UAF1 enzyme (Homo sapiens, UniProt O94782)" result="100 to 500 nM"
compound="COc1ncnc(C2CC2)c1-c1nc2n(n1)CCC(=O)N2Cc1ccc(-c2nc(C(F)(F)F)cn2C(C)C)c(Cl)c1 [Example 172]" target="USP1/UAF1 enzyme (Homo sapiens, UniProt O94782)" result="< 100 nM"
compound="CCn1cc(C(F)(F)F)nc1-c1ccc(COC2CCCn3nc(-c4c(Cl)cnn4C(C)C)cc32)cc1 (stereo not shown) [Example 270]" target="USP1/UAF1 enzyme (Homo sapiens, UniProt O94782)" result="< 100 nM"
compound="CCn1cc(C(F)(F)F)nc1-c1ccc(CN2C(=O)CCn3nc(-c4c(Cl)cnn4C(C)C)nc32)cn1 [Example 186]" target="USP1/UAF1 enzyme (Homo sapiens, UniProt O94782)" result="< 100 nM"
